B1: TPR t1 (parent)
chain: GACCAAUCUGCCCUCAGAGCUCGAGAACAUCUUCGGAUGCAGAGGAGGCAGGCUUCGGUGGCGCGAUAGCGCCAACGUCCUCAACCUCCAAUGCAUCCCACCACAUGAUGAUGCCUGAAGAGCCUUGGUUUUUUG

Variants of: B1
procedure.summary: polymerase ribozyme fitness, log enrichment relative to wild type (log ratio); higher = more active; in vitro selection for triplet polymerase activity
measured.parameter: polymerase ribozyme fitness (log ratio)

Sample records with polymerase ribozyme fitness (log ratio):
>  <mutation.descriptor>
C12A C62A C72U C98U U126C

>  <measured.parameter>
polymerase ribozyme fitness (log ratio)

>  <observed.result>
-2.97

$$$$
>  <mutation.descriptor>
C88G U106G

>  <measured.parameter>
polymerase ribozyme fitness (log ratio)

>  <observed.result>
-2.4

$$$$
>  <mutation.descriptor>
A5C C79U C104A

>  <measured.parameter>
polymerase ribozyme fitness (log ratio)

>  <observed.result>
-2.03

$$$$
>  <mutation.descriptor>
C72U A95C C97U

>  <measured.parameter>
polymerase ribozyme fitness (log ratio)

>  <observed.result>
-2.94

$$$$
>  <mutation.descriptor>
C72U U78C U106C G117A A118U U125G

>  <measured.parameter>
polymerase ribozyme fitness (log ratio)

>  <observed.result>
-5.09

$$$$

Give one value of polymerase ribozyme fitness (log ratio) per listed variant.
1. A29U C98U
2. A6C A16U C70U C104A
3. G57A C114U
4. G71A A84C
5. A6U C40U C123A
6. A91C C98G G113A

Reply text:
[-3.59, -4.73, -3.27, -0.48, 0.808, -5.51]
